Quick list: pIC50 per entry.
subject_of_test: human Gastric Inhibitory Peptide Receptor (GIPR) (human) (UniProt P48546)
Sequence (P48546 22-466 limits assumed): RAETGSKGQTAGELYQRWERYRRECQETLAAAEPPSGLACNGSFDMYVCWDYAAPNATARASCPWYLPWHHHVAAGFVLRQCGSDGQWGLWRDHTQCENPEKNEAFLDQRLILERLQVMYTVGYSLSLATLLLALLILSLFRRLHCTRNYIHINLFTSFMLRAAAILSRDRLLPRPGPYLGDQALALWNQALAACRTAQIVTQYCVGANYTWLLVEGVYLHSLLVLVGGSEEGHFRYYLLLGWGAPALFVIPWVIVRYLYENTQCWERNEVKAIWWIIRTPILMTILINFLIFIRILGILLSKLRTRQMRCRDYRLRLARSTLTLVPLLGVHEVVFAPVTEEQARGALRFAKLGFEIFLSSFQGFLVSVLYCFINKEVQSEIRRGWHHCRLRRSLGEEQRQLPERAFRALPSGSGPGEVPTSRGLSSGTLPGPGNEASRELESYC
experimental_details: FACS competition vs biotinylated GIP-057 on CHO-K1-hGIPR cells; category A: pIC50 >8.0
*1 amine or outer side, *2 acyl side, *3 side chain or, on linkers, in order; H or OH if unused. Bridges are numbered along the chain shown (N, C = ends). [ ]: non-standard residue; d: D form. Trp(5-Cl) = N[C@@H](Cc1c[nH]c2ccc(Cl)cc12)C(=O)O; Pyridine(2,6-diCH2) = c1cc(C[*:1])nc(C[*:2])c1; 1Nal = N[C@@H](Cc1cccc2ccccc12)C(=O)O; Hyp = O=C(O)[C@@H]1C[C@@H](O)CN1; Thp = NC1(C(=O)O)CCOCC1

Example results:
What does the record list as pIC50 for Ac-DW[Trp(5-Cl)][Hyp]R[dL]C[Thp]LIC-NH2 (linker 7-11 via Pyridine(2,6-diCH2)) [Ac-Asp-Trp-5Clw-Hyp-Arg-leu-[Cys(2Lut)-Thp-Leu-Ile-Cys]-NH2] ?
> 8 pic50

Could you share which pIC50 value was measured for Ac-D[Trp(5-Cl)][Trp(5-Cl)][Hyp]E[dL]C[Thp]LIC-NH2 (linker 7-11 via Pyridine(2,6-diCH2)) [Ac-Asp-5Clw-5Clw-Hyp-Glu-leu-[Cys(2Lut)-Thp-Leu-Ile-Cys]-NH2] ?
> 8 pic50

---
Any idea what pIC50 was measured for Ac-D[1Nal][Trp(5-Cl)][Hyp]E[dL]C[Thp]LIC-NH2 (linker 7-11 via Pyridine(2,6-diCH2); SMILES CC[C@H](C)[C@@H]1NC(=O)[C@H](CC(C)C)NC(=O)C2(CCOCC2)NC(=O)[C@@H](NC(=O)[C@@H](CC(C)C)NC(=O)[C@H](CCC(=O)O)NC(=O)[C@@H]2C[C@@H](O)CN2C(=O)[C@H](Cc2c[nH]c3ccc(Cl)cc23)NC(=O)[C@H](Cc2cccc3ccccc23)NC(=O)[C@H](CC(=O)O)NC(C)=O)CSCc2cccc(n2)CSC[C@@H](C(N)=O)NC1=O) [Ac-Asp-1Ni-5Clw-Hyp-Glu-leu-[Cys(2Lut)-Thp-Leu-Ile-Cys]-NH2] ?
> 8 pic50
